# Test system: U-251
# TEST_DETAILS: NCI tumour cell line growth inhibition, 48 h
Activity calls are given as the source filed them. Cut-off read from the data, not from the text of the source: active = GI50 up to about 1.1 µM and inactive = higher.
MEASURED_PROPERTY: GI50

query: Value lookup for GI50; key = CC(=O)O[C@H]1CC2C=CC3C(CCC31)O2 (stereo not given in full)
result: > 100 µM (inactive)

query: Value lookup for GI50; key = `COC1=C(C)C(=O)C2=C(C1=O)[C@@H]1[C@@H]3Cc4c(OC(=O)CO)c(C)c(OC)c(O)c4[C@H](CNC(=O)C(C)=O)N3[C@@H](C#N)[C@H](C2)N1C`
result: 0.029 µM (active)

query: Value lookup for GI50; key = `Cc1[nH]c(=O)[nH]c(=S)c1C(=O)NC(C)(CO)CO`
result: > 100 µM (inactive)

====

# System: Malme-3M
# TEST_DETAILS: NCI tumour cell line growth inhibition, 48 h
Active and inactive are the calls of the source. Cut-off read from the data, not from the text of the source: active = GI50 up to about 1.1 µM and inactive = higher.
MEASURED_PROPERTY: GI50

// solved cases for GI50 follow
[[record]]
molecule = "C=C1C(=O)C[C@H]2C(=C)C(=O)O[C@@H]2C2C1CC[C@@]2(C)O (some centres undefined)"
measured_property = "GI50"
endpoint_value = "16.3 µM (inactive)"

[[record]]
molecule = "CCOC(=O)CN(Cn1cncn1)Cn1cncn1"
measured_property = "GI50"
endpoint_value = "52 µM (inactive)"

[[record]]
molecule = "C=C(C)[C@H]1CC23C(=O)C(C(=O)C(C)C)=C(O)[C@](C)(C[C@H]2C1(C)C)C3=O [LALIBINONE B]"
measured_property = "GI50"
endpoint_value = "14.3 µM (inactive)"

[[record]]
molecule = "CN(C)/N=C(/CC(O)(C(F)(F)F)C(F)(F)F)c1ccc([N+](=O)[O-])cc1"
measured_property = "GI50"
endpoint_value = "> 100 µM (inactive)"

[[record]]
molecule = "O=C1CC2(CCN(Cc3ccccc3)CC2)C(=O)N1N1CCCCC1"
measured_property = "GI50"
endpoint_value = "> 100 µM (inactive)"

[[record]]
molecule = "CC1CC(=O)Nc2nc3ccccc3n21 (centres undefined)"
measured_property = "GI50"
endpoint_value = "> 100 µM (inactive)"

[[record]]
molecule = "CCCC(C)NC1=C(NC(C)=O)C(=O)c2ccccc2C1=O (centres undefined)"
measured_property = "GI50"
endpoint_value = "36.1 µM (inactive)"

[[record]]
molecule = "Cc1ccc(C)c(NC(=O)CC/C(=N\\NC(=O)C(=O)NN)C(C)C(=O)c2ccc(O)cc2)c1 (centres undefined)"
measured_property = "GI50"
endpoint_value = "> 100 µM (inactive)"

[[record]]
molecule = "Nc1nc(Cl)cc(OCC2(CO)CC=CC2)n1"
measured_property = "GI50"
endpoint_value = "> 100 µM (inactive)"

[[record]]
molecule = "O=C(O)c1nn[nH]c1S"
measured_property = "GI50"
endpoint_value = "> 100 µM (inactive)"


Now examine the next entry.
query: Value lookup for GI50; key = `O=C(Nc1c(Cl)cc([N+](=O)[O-])cc1Cl)/C(=N\Nc1cccc(Cl)c1)c1c(O)c2ccccc2oc1=O`
result: > 100 µM (inactive)

====

Entries annotated with measured GI50
# Test system: HCT-15

// solved cases for GI50 follow
[[record]]
compound = "Oc1nc(S)nc2nc3c4cccnc4c4ccccc4c3nc12"
target_of_assay = "HCT-15"
measured_property = "GI50"
endpoint_value = "> 100 µM"

[[record]]
compound = "[O-][S+]1Cc2ccccc2CSS1 (configuration not stated)"
target_of_assay = "HCT-15"
measured_property = "GI50"
endpoint_value = "13 µM"

[[record]]
compound = "CN1C/C(=C\\c2cccs2)C(=O)/C(=C/c2cccs2)C1"
target_of_assay = "HCT-15"
measured_property = "GI50"
endpoint_value = "27.2 µM"

[[record]]
compound = "C1=C[C@@H]2c3ccc4cnccc4c3NC[C@@H]2C1"
target_of_assay = "HCT-15"
measured_property = "GI50"
endpoint_value = "> 100 µM"


query: Value lookup for GI50; key = `COc1cccc2ccc(C(=O)c3ccccc3)nc12`
result: > 100 µM

query: Value lookup for GI50; key = O=C1OS2(OCc3cccc4cccc2c34)c2ccccc21 (configuration not stated)
result: > 100 µM

query: Value lookup for GI50; key = `Cc1cc(C)c(N)c(CO)c1`
result: > 100 µM

====

# System: ACHN
# TEST_DETAILS: NCI tumour cell line growth inhibition, 48 h
Calls of active or inactive are those of the source. Cut-off read from the data, not from the text of the source: active = GI50 up to about 1.1 µM and inactive = higher.
MEASURED_PROPERTY: GI50

[[record]]
compound = "CCOC(=O)c1cc(C2CCN(CC(C)CC)C2=S)c(C(=O)/C=C(/C)N)[nH]1 (stereo not given)"
measured_property = "GI50"
endpoint_value = "> 50 µM (inactive)"

[[record]]
compound = "C=C(C)[C@H]1CC23C(=O)C(C(=O)C(C)C)=C(O)[C@](C)(C[C@H]2C1(C)C)C3=O"
measured_property = "GI50"
endpoint_value = "16.6 µM (inactive)"

[[record]]
compound = "CCS/C(=N\\c1ccccc1)SC"
measured_property = "GI50"
endpoint_value = "> 100 µM (inactive)"


query: Value lookup for GI50; key = `COc1ccc(C(c2c(O)c3ccccc3n(-c3ccccc3)c2=O)c2c(O)c3ccccc3n(-c3ccccc3)c2=O)cc1`
result: > 100 µM (inactive)

query: Value lookup for GI50; key = `CC(=O)/N=C1\NC(=O)/C(=C/c2ccccc2Cl)N1C`
result: > 100 µM (inactive)

====

# Test system: RPMI-8226
# TEST_DETAILS: NCI tumour cell line growth inhibition, 48 h
Activity calls are given as the source filed them. Rule as the data show it: active = GI50 up to about 1.1 µM and inactive = higher.
Entries annotated with measured GI50

// solved cases for GI50 follow
[[record]]
compound = "O=C(N/N=C/c1ccc([N+](=O)[O-])cc1)c1cccc2nc3ccccc3nc12"
measured_property = "GI50"
endpoint_value = "> 100 µM (inactive)"

[[record]]
compound = "COc1ccc(/C=C2\\CCC(CCN(C)C)(C3=CCCC3)C2=O)cc1Br (configuration not stated)"
measured_property = "GI50"
endpoint_value = "2.17 µM (inactive)"

[[record]]
compound = "O=C1C2C(C(=O)N1Cc1ccccc1)N(Cc1ccccc1)C(=O)N2Cc1ccccc1 (configuration not stated)"
measured_property = "GI50"
endpoint_value = "> 100 µM (inactive)"

[[record]]
compound = "O=C1CC2(CCN(Cc3ccccc3)CC2)C(=O)N1N1CCCCC1"
measured_property = "GI50"
endpoint_value = "> 100 µM (inactive)"

[[record]]
compound = "COc1ccc(C(OCC2OC(n3cnc4c(=O)n(Cc5ccccc5[N+](=O)[O-])nnc43)C(O)C2O)(c2ccccc2)c2ccc(OC)cc2)cc1 (configuration not stated)"
measured_property = "GI50"
endpoint_value = "3.36 µM (inactive)"


query: Value lookup for GI50; key = [O-][S+]1c2ccccc2N=C(c2cccc3ccccc23)CC1c1cccc2ccccc12 (configuration not stated)
result: 19.8 µM (inactive)

query: Value lookup for GI50; key = `CC(=O)NCc1c(C(N)=O)ncn1Cc1ccccc1`
result: > 100 µM (inactive)

query: Value lookup for GI50; key = `CCOC(=O)NC(=O)c1cn(CCCOC(=O)CCCCCCCCCCC(=O)OCCCn2cc(C(=O)NC(=O)OCC)c(=O)n(C)c2=O)c(=O)n(C)c1=O`
result: > 100 µM (inactive)

query: Value lookup for GI50; key = `O=C(OCCNC(=O)N1CC1)OCCNC(=O)N1CC1`
result: > 10 µM (inactive)

====

# Tested on: OVCAR-3
# TEST_DETAILS: NCI tumour cell line growth inhibition, 48 h
Active and inactive are the calls of the source. Rule as the data show it: active = GI50 up to about 1.1 µM and inactive = higher.
MEASURED_PROPERTY: GI50

// solved cases for GI50 follow
[[record]]
compound = "Nc1nc(N)c2ncn(CC3CCC(CO)C3)c2n1 (stereo not given)"
endpoint_value = "> 100 µM (inactive)"

[[record]]
compound = "COc1ccc(C2(CN(C)C)COc3cc(OC)c(OC)cc3C2=O)cc1OC (stereo not given)"
endpoint_value = "86.7 µM (inactive)"


query: Value lookup for GI50; key = `Cc1cccc(NC(N)=S)c1`
result: > 100 µM (inactive)

query: Value lookup for GI50; key = `CCOC(=O)[C@@]12NN=N[C@@H]1[C@H]1CO[C@H](c3ccccc3)N1C2=O`
result: 8.53 µM (inactive)

query: Value lookup for GI50; key = CCOC(=O)CCC(NC(=O)N1CCN(c2c(C)nc(C)nc2O)CC1)C(=O)OCC (stereo not given)
result: > 100 µM (inactive)

query: Value lookup for GI50; key = `COC(=O)[C@@]1(C)C(=O)CC[C@@H]1C=O`
result: > 100 µM (inactive)

query: Value lookup for GI50; key = `CCN(CC)c1ccc2cc(C(N)=O)c(=N)oc2c1`
result: 31.6 µM (inactive)

query: Value lookup for GI50; key = `Cc1nc2ccc(S(=O)(=O)Nc3ccc(Cl)cc3)cc2c(=O)n1NC(=O)CNc1ccc(Cl)cc1`
result: > 100 µM (inactive)

query: Value lookup for GI50; key = Cc1cc(NCC2CC/C(=C\C=C\c3ccccc3)C2=O)no1 (stereo not given)
result: > 100 µM (inactive)

query: Value lookup for GI50; key = O=C1[C@H]2ON(c3ccccc3)C(c3ccc(Cl)cc3)[C@H]2C(=O)N1c1ccc(Cc2ccc(N3C(=O)[C@@H]4ON(c5ccccc5)C(c5ccc(Cl)cc5)[C@@H]4C3=O)cc2)cc1 (stereo not given in full)
result: > 100 µM (inactive)
